- assay_target: Casein kinase I isoform alpha (Homo sapiens)
- Sequence (P48729 whole entry, canonical isoform): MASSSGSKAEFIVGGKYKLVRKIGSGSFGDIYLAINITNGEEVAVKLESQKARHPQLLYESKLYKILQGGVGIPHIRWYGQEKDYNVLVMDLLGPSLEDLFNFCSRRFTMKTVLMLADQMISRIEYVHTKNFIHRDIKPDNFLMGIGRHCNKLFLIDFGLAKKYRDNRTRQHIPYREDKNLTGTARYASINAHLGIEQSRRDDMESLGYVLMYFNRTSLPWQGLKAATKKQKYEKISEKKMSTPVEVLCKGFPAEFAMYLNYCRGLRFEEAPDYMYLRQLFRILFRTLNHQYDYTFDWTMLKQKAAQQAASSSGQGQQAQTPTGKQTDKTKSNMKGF
- Format: functional
The source made the active and inactive calls.
Outcome codes: 1.0 for active, 0.0 for inactive

compound="CCC1CC(NS(=O)(=O)C2CC2)CC1c1ncc2cnc3[nH]ccc3n12 (stereo not given)" discrete_label=0.0
compound=O=C(Nc1cccc(C(F)(F)F)n1)Nc1ccnc2cc(OC(F)F)ccc12 discrete_label=0.0
compound=O=c1[nH]c2cc(Br)cnc2[nH]1 discrete_label=1.0
compound=O=C(Nc1cccc(C(F)(F)F)n1)Nc1ccnc2cc(Cl)ccc12 discrete_label=0.0
compound=N#Cc1cnc(Cl)nc1N discrete_label=1.0

###

- assay_target: Serine/threonine-protein kinase D3 (Homo sapiens);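 note: determined within a kinase panel screen, with PRKCN as the panel member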
- Sequence (O94806 whole entry): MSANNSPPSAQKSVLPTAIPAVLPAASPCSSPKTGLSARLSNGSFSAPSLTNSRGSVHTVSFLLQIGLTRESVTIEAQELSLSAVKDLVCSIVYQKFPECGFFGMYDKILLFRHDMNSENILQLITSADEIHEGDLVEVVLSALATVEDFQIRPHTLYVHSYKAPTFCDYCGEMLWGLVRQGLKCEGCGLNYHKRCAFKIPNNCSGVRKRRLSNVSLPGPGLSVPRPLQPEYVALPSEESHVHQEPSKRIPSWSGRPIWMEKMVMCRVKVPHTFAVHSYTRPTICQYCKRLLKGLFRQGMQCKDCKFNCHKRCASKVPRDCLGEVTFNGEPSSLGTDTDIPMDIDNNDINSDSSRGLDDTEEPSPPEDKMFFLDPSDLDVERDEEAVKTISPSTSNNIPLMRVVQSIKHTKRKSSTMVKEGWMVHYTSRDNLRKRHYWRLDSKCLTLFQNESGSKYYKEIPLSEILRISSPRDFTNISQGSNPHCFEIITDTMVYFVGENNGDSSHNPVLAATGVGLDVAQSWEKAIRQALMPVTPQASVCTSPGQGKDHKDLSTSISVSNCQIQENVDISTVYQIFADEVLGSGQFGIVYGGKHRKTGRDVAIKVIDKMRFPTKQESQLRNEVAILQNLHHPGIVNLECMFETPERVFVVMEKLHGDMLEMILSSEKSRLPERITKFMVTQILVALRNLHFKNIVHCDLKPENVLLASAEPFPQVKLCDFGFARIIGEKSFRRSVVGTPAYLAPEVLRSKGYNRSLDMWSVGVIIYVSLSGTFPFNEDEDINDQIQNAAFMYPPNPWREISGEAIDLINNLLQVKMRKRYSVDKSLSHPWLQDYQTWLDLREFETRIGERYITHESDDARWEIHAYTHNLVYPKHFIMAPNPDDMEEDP
- Format: functional
Activity calls are given as the source filed them.
Classes used: t = active, f = inactive

compound=O=C(Nc1cccc(C(F)(F)F)n1)Nc1ccnc2cc(OC(F)F)ccc12 discrete_label=f
compound="CCC1CC(NS(=O)(=O)C2CC2)CC1c1ncc2cnc3[nH]ccc3n12 (centres undefined)" discrete_label=f
compound=O=c1[nH]c2cc(Br)cnc2[nH]1 discrete_label=t
compound=O=C(Nc1cccc(C(F)(F)F)n1)Nc1ccnc2cc(Cl)ccc12 discrete_label=f
